Items are presented alongside their recorded IC50.
- Test target: recombinant human GST-Syk (Homo sapiens, UniProt P43405)
- Construct: purchased Carna Biosciences 08-176
- Measurement description: Homogeneous Time-Resolved Fluorescence (HTRF) assay for the recombinant human Syk enzyme
- Format: biochemical
- Condition label: recombinant human GST-Syk 5 pM, ATP 25 μM, 10-dose titration 10 μM to 0.508 nM; read-out: rhSYK Activity IC50
Where a name gives a salt, the structure may show the parent alone.
Measured parameter: IC50 (nM)

* Cc1cc(Nc2nccc(C(F)(F)F)n2)cc(-c2cn(C[C@H](C)CO)nn2)c1 [Example 5.72] | 38.1
* Cc1cc(Nc2cc(C(F)F)ccn2)nc(-c2cn(CC3OC(=O)NC3C)nn2)c1 (single isomer, unassigned) [Example 7.44] | 18
* COC(=O)CNC(=O)[C@H](C)n1cc(-c2cc(C)cc(Nc3cc(C(F)(F)F)ccn3)n2)nn1 [Example 1.1, trifluoroacetate] | 76.3
* CC(O)(CO)Cn1cc(-c2cccc(Nc3nccc(C(F)(F)F)n3)c2)nn1 (single isomer, unassigned) [Example 21.6] | 44.6
